Values were extracted from patent US20260193326A1.

# System: T1, AAV5
# T1 construct: also called adeno-associated virus serotype 5
# Protocol details: SPR, AAV on CM5 chip;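 note: surface plasmon resonance with AAV amine-coupled to the chip as ligand, nanobodies injected as analyte over a concentration series, rate constants and affinity fitted from binding curves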
Measure name: kon
Respond with the figure and its unit, in that order.

Task: Fill in reported kon for this entry: A4-009 (VHH) VHH: VQLQESGGGLAQPGGSLRLSCAASGSRFSINTMGWYRQAPGKQREFVAAVTRGGSTNYAGSVKGRFTISRDNAKNTVYLQMNTLRPEDTAVYYCHVDEVRQSSWTTSNIWGQGTQVTVSS
Result: 49700 M⁻¹ s⁻¹

Task: Fill in reported kon for this entry: A4-044 (VHH) VHH: VQLQESGGGLVQPGGSLRLSCAASGSSFSINTMGWYRQAPGKQRELVATVTRGGVTNYADSVKGRFTISRDNAKNTVYLQMNSLRPEDTAVYYCHVDEVRQSSWTTSNLWGQGTQVTVSS
Result: 183000 M⁻¹ s⁻¹

Task: Fill in reported kon for this entry: A4-043 (VHH) VHH: VQLQESGGGLVQPGGSLRLSCAASGRAFSINTMGWYRQAPGKQRELVATVTRDGSTNYAGSVKGRFTISRDNAKNTVYLQMNSLRPEDTAVYYCHVDEVRQSSWTTSNLWGQGTQVTVSS
Result: 36200 M⁻¹ s⁻¹

Task: Fill in reported kon for this entry: A4-049 (VHH) VHH: VQLQESGGGLVQPGGSLRLSCAASGSMFSINTMGWYRQAPGKQRELVAAVTRGGNTNYAGSVKGRFTISRDNAKNTVYLQMNSLRPEDTAVYYCHVDEVRQSSWTTSNLWGQGTQVTVSS
Result: 164000 M⁻¹ s⁻¹
